Record form. Attribute: IC50 (µg/ml) with constrains. Fill in for each entry.
target: HIV Env of isolate 6952.v1.c20 (clade CD) (HIV); test: cell-based or functional assay
Unit µg/mL implied. Number only.

Problem: Would you kindly share the measured IC50 (µg/ml) with constrains for ePGDM9 (antibody, V domains shown) VH: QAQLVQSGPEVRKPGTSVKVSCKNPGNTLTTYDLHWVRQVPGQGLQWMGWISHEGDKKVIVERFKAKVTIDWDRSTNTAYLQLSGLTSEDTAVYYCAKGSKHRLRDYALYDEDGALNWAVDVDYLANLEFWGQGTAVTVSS VL: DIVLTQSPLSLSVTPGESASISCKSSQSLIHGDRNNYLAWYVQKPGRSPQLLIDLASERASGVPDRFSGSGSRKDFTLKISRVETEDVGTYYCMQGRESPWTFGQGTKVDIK ?
Solution: 0.052

Problem: Would you kindly share the measured IC50 (µg/ml) with constrains for ePGDM5 (antibody, V domains shown) VH: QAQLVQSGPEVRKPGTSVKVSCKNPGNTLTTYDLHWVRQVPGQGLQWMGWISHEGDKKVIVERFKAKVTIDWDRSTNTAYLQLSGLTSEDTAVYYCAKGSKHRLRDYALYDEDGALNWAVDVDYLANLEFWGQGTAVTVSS VL: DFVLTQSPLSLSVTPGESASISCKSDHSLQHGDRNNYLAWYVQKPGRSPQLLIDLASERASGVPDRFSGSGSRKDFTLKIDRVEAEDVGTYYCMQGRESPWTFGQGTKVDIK ?
Solution: 0.033

Problem: Would you kindly share the measured IC50 (µg/ml) with constrains for PGDM1400 (antibody, V domains shown) VH: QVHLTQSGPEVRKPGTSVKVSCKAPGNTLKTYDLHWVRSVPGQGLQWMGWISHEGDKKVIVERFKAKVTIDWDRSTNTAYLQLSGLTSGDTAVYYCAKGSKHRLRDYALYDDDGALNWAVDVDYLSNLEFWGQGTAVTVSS VL: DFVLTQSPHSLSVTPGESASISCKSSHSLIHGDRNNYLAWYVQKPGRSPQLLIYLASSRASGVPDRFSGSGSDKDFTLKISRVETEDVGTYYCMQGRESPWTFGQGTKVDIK ?
Solution: 1.76

Problem: Would you kindly share the measured IC50 (µg/ml) with constrains for ePGDM13 (antibody, V domains shown) VH: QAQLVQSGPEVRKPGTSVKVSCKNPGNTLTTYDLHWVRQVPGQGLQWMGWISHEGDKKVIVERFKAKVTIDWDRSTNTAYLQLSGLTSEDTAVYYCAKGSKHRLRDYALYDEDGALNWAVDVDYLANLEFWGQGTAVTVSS VL: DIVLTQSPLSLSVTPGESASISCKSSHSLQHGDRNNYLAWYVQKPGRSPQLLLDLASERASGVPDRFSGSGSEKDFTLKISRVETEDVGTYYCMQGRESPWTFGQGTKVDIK ?
Solution: 0.079
